Listed here: items and their measured OD450.
- SYSTEM: T1, biotin-peptide TDFYCEKNNV (human)
- T1 peptide: Biotin-TDFYCEKNNV
- METHOD_SUMMARY: ELISA biotin-peptide; scFv 10 ug/mL; repII
Where no end group is shown, it is not given here. The star is where a group is joined. Biotin = O=C1N[C@H]2[C@H](CS[C@H]2CCCCC(=O)*)N1
Unit OD implied. Number only.

BINDER | OD450 (OD)
Comparative antibody 3 (Comp-3) scFv, SR_92R (Somovilla-Crespo et al. 2018), His-tagged (scFv) scFv: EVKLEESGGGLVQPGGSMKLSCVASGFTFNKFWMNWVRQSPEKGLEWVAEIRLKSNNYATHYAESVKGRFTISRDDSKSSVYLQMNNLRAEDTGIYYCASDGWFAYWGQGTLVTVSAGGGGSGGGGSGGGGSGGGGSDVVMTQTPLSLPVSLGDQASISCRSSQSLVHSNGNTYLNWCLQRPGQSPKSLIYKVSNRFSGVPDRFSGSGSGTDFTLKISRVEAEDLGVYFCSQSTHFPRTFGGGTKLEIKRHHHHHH | 0.09

Requested field: OD450. Item: CCR9_HUM2 scFv (humanized anti-CCR9 scFv, SEQ ID NO: 17 with C-terminal 6xHis tag) (scFv) scFv: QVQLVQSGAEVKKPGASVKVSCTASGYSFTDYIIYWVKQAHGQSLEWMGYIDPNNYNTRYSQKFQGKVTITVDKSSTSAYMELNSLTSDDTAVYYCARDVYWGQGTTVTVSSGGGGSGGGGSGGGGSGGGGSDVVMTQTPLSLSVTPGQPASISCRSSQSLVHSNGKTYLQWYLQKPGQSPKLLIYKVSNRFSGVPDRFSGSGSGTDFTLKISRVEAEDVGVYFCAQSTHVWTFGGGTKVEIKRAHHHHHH
0.06

Subsequent entry: Comparative antibody 1 (Comp-1) scFv, SEQ ID NO: 10 from WO2023/037125 A1, His-tagged (scFv) scFv: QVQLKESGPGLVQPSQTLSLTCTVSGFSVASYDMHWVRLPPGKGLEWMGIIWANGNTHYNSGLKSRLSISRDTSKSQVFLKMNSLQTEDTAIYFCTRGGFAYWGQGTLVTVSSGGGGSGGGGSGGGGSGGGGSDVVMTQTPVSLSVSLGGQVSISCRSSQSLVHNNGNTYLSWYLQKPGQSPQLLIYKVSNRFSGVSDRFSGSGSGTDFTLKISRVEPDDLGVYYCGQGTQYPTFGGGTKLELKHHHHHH
0.05

All values here come from patent US20260232732A1.
